Cited source for all entries: PubChem BioAssay (NCI)

Tested on: OVCAR-5 ovarian
Protocol summary: NCI tumour cell line growth inhibition, 48 h
Assay endpoint: TGI

{"Compound": "C[C@]12CCC3[C@@H](CC[C@@H]4c5nonc5CC[C@]34C)C1CC[C@@H]2O (stereo partly drawn)", "Reading": "> 100 µM"}
{"Compound": "CN(C)c1cccc(NC2=NCCO2)c1", "Reading": "> 100 µM"}
{"Compound": "C=CCc1cc(OC)c2c(c1)C(OC)CC(c1ccc(OC)c(OC)c1)O2 (stereo not drawn)", "Reading": "> 100 µM"}
{"Compound": "CCn1c(-c2nonc2N)nc2cncc(C(=O)N3CC[C@H](N)C3)c21", "Reading": "> 25 µM"}
{"Compound": "O=[N+]([O-])c1cccc(C2CC(c3ccccc3)=Nc3ccccc3S2)c1 (stereo not drawn)", "Reading": "28.1 µM"}
{"Compound": "Cc1ccc(S(=O)(=O)NC(CN)C(=O)O)cc1 (stereo not drawn)", "Reading": "> 100 µM"}
{"Compound": "CC(=N\\N)/C(C)=N/N=C(C)/C(C)=N/N=C(C)/C(C)=N/N", "Reading": "> 100 µM"}
{"Compound": "CC[C@H](C)[C@H](NC(=O)[C@H]1CCCCN1C)C(=O)N(C)[C@H](C[C@@H](OC(C)=O)c1nc(C(=O)N[C@@H](Cc2ccccc2)C[C@H](C)C(=O)O)cs1)C(C)C", "Reading": "> 16.5 µM"}
{"Compound": "COc1ccc(C(C2=C(O)COC2=O)c2cc3c(cc2O)OCO3)cc1OC (stereo not drawn)", "Reading": "> 100 µM"}
{"Compound": "COc1cccc(-c2cc(=O)c3ccccc3[nH]2)c1", "Reading": "> 100 µM"}
{"Compound": "COC(OC)[C@@H]1OC[C@@H](O)[C@@H]1n1cnc2c(N)ncnc21", "Reading": "> 100 µM"}
{"Compound": "CC(=O)O[C@H]1CC[C@@]2(C)C(=CC[C@@H]3C2CC[C@]2(C)Nc4nc5ccccc5cc4CC32)C1 (stereo partly drawn)", "Reading": "26.9 µM"}
{"Compound": "CN1c2ccccc2N(C(=O)c2ccccc2)C(CC(=O)O)c2cccn21 (stereo not drawn)", "Reading": "> 100 µM"}
{"Compound": "N#CC1c2ccccc2C=CN1C(=O)N(c1ccccc1)c1ccccc1 (stereo not drawn)", "Reading": "24.3 µM"}
{"Compound": "CCCCCCC[CH2][Sn]1([CH2]CCCCCCC)[O]C(=O)c2cccnc2[O]1", "Reading": "> 100 µM"}
{"Compound": "CCOC(=O)COc1ccc2c(C)cc(=O)oc2c1", "Reading": "> 100 µM"}
{"Compound": "COc1ccc(/C=N/n2cnc3[nH]c(C)c(Cc4ccccc4)c3c2=N)cc1", "Reading": "> 100 µM"}
{"Compound": "COc1cc(CCc2ccc(N)cc2)cc(OC)c1OC", "Reading": "> 100 µM"}
{"Compound": "O=C(COc1cccc(/C=C2\\CSc3ccccc3C2=O)c1)Nc1nccs1", "Reading": "15.5 µM"}
{"Compound": "CSc1c(C(=O)Nc2ccc(Cl)cc2)c(N)n(N)c(=O)c1C#N", "Reading": "> 100 µM"}
{"Compound": "CCCC(CCN)(CCN)[N+](=O)[O-]", "Reading": "> 100 µM"}
{"Compound": "CC(=O)NC(CC(C)C)C(=O)NC(Cc1ccccc1)C(=S)N1CCCC1 (stereo not drawn)", "Reading": "> 100 µM"}
{"Compound": "Cn1cc(C2=C(c3cn(CCCCCSC(=N)N)c4ccccc34)C(=O)NC2=O)c2ccccc21", "Reading": "8.26 µM"}

###

System: NCI-H522 lung
Protocol summary: NCI tumour cell line growth inhibition, 48 h; in the data active = GI50 below about 0.43 µM; inactive = the rest
Labels: active, inactive

{"Compound": "Oc1[nH]c2ccccc2c1/C=c1/cc2c(c(-c3ccc(F)cc3)n1)=Nc1ccccc1-2", "Category": "active"}
{"Compound": "COC(=O)[C@H]1CCCN1C(=O)[C@H]1CCCN1C(=O)[C@H](Cc1c[nH]c2ccccc12)NC(=S)Nc1cc(C(F)(F)F)cc(C(F)(F)F)c1", "Category": "inactive"}
{"Compound": "O=C1Cc2cc(C(=O)NC3C[C@H]4CC[C@@H](C3)N4S(=O)(=O)CC3CCN(CCCC(F)(F)F)CC3)c(Cl)cc2N1 (stereo not given in full)", "Category": "inactive"}
{"Compound": "COc1ccc(N(C)c2nc(N)nc3sc4c(c23)CCCC4)cc1", "Category": "active"}
{"Compound": "Cc1cc(Cl)nc(N(CCCNc2ccnc3cc(Cl)ccc23)Cc2ccco2)n1", "Category": "inactive"}
{"Compound": "CN(CC(=O)N(Cc1ccc(C2CCCCC2)cc1)c1ccc(C(=O)O)cc1)S(=O)(=O)c1c(F)c(F)c(F)c(F)c1F", "Category": "inactive"}
{"Compound": "CCOC(=O)c1cnc2c(C)cccc2c1Nc1ccc(C(C)=O)cc1", "Category": "inactive"}
{"Compound": "Cc1nc2ccccc2c(/C=C/c2ccc(Cl)cc2)c1C(=O)/C=C/c1ccc(Cl)cc1", "Category": "inactive"}
{"Compound": "N#CC1c2ccccc2C=CN1C(=O)N(c1ccccc1)c1ccccc1 (stereo not given)", "Category": "inactive"}
{"Compound": "Cn1cc(C2=C(c3cn(CCCCCSC(=N)N)c4ccccc34)C(=O)NC2=O)c2ccccc21", "Category": "inactive"}

###

Listing of entries alongside the reported TGI.
Tested on: SF-539 CNS
Protocol summary: NCI tumour cell line growth inhibition, 48 h

{"Compound": "COc1cc(-c2ccccc2N)c2cccnc2c1OC", "TGI": "21.6 µM"}
{"Compound": "C=CC(=O)N1CC2(CC(n3nc(-c4ccc5c(cnn5C)c4)c(-c4c(Cl)c(C)cc5[nH]ncc45)c3C)C2)C1", "TGI": "5.17 µM"}
{"Compound": "CC(C)C1N(C)c2ccc(Cl)cc2[C@H]2c3ccccc3CCN12 (stereo not given in full)", "TGI": "> 100 µM"}
{"Compound": "CCc1nc(N)nc(N)c1-c1ccc(N2CCNCC2)cc1", "TGI": "> 100 µM"}
{"Compound": "CC1(c2ccc(Cl)cc2)C2C(=O)NC(=O)C1C(=O)NC2=O (stereo not given)", "TGI": "> 100 µM"}
{"Compound": "C=C1C(=O)OC2/C=C(/C)C(OC(C)=O)C/C=C(\\C)C(OC(=O)C3(C)OC3C)C(O)C12 (stereo not given)", "TGI": "> 100 µM"}
{"Compound": "COc1cc(-c2nn(-c3cccc(NC(=O)c4ccc(Cl)c(C(F)(F)F)c4)c3)cc2-c2ccncc2)ccc1Cl", "TGI": "15 µM"}
{"Compound": "CC1=C(C(=O)Nc2ccc(Cl)c(C(=O)OC(C)C)c2)SCCO1", "TGI": "> 97 µM"}
{"Compound": "CCOC(=O)COc1ccc2c(C)cc(=O)oc2c1", "TGI": "> 100 µM"}
{"Compound": "O=C1NC(=NCCCc2ccccc2)S/C1=C\\c1ccc2ncccc2c1", "TGI": "9.49 µM"}
{"Compound": "CC(=O)N1CCn2c1nc1cc(Cl)ccc12", "TGI": "> 100 µM"}
{"Compound": "CC[C@H](C)[C@H](NC(=O)CN(C)C)C(=O)N(C)[C@H](C[C@@H](OC(C)=O)c1nc(C(=O)NC23CC(C(=O)OC)(C2)C3)cs1)C(C)C", "TGI": "1.56 µM"}
{"Compound": "O=C1Cc2cc(C(=O)NC3C[C@H]4CC[C@@H](C3)N4S(=O)(=O)CC3CCN(CCCC(F)(F)F)CC3)c(Cl)cc2N1 (stereo not given in full)", "TGI": "> 100 µM"}
{"Compound": "CCCC(CCN)(CCN)[N+](=O)[O-]", "TGI": "> 100 µM"}
{"Compound": "C[C@]12CCC3[C@@H](CC[C@@H]4c5nonc5CC[C@]34C)C1CC[C@@H]2O (stereo not given in full)", "TGI": "32.3 µM"}
{"Compound": "COc1cccc(/C=N/[N-]C(N)=O)c1[O-].[Cu+2].[OH3+].c1ccc(-c2ccccn2)nc1", "TGI": "67.7 µM"}
{"Compound": "COc1cc(N(Cc2ccc3oc(=O)c(-c4ccccc4)nc3c2)Cc2ccc3oc(=O)c(-c4ccccc4)nc3c2)cc(OC)c1OC", "TGI": "> 10 µM"}
{"Compound": "O=C(Nc1nc2c(ncn2C2OC(CO)C(O)C2O)c(=O)[nH]1)c1ccccc1 (stereo not given)", "TGI": "> 100 µM"}
{"Compound": "CC(C)(C)OC(=O)NCCCCC(NC(=O)c1ccccc1)C(N)=O (stereo not given)", "TGI": "> 100 µM"}
{"Compound": "Fc1cccc(F)c1C1SCc2nc3ccc(Cl)cc3n21 (stereo not given)", "TGI": "> 100 µM"}
